PROTOCOL_DESCRIPTION: Partition coefficient (logP)
Type: physicochemical
TEST_SETTINGS: octanol/water
Catalogue of logP readings, one per entry.
VALUE_KIND: logP

QUERY_SMILES	NUMERIC_VALUE
CCCCc1nc2[nH]cnc2c2nc(-c3ccc(C(C)(C)C)cc3)nn12	5.93
Cc1nc2[nH]cnc2c2nc(-c3ccccc3)nn12	2.82
c1ccc(-c2nc3c4nc[nH]c4nc(-c4ccccc4)n3n2)cc1	4.2
CCCCc1nc2[nH]cnc2c2nc(-c3cccc(OC)c3)nn12	4.1
CCCc1nc2nc[nH]c2c2nc(-c3ccccc3)nn12	3.81

###

PROTOCOL_DESCRIPTION: Partition coefficient (logP)
Assay type: physicochemical
TEST_SETTINGS: octanol/water
Catalogue of logP readings, one per entry.

QUERY_SMILES	logP
CCCCc1nc2[nH]cnc2c2nc(-c3ccc(OCCC)cc3)nn12	4.92
CCCCc1nc2nc[nH]c2c2nc(-c3ccc(O)cc3)nn12	3.84
CCCCc1nc2nc[nH]c2c2nc(-c3ccc(OCC)cc3)nn12	4.44
CCCCc1nc2[nH]cnc2c2nc(-c3ccc(N(C)C)cc3)nn12	4.51
CCCCc1nc2nc[nH]c2c2nc(-c3ccc(SC)cc3)nn12	4.66
CCCCc1nc2[nH]cnc2c2nc(-c3ccc(C(F)(F)F)cc3)nn12	5.15
CCCCc1nc2[nH]cnc2c2nc(-c3cccnc3)nn12	2.89
CCCCc1nc2nc[nH]c2c2nc(-c3cccc(Cl)c3)nn12	4.78
CCCCCc1nc2nc[nH]c2c2nc(-c3ccccc3)nn12	4.64
CCCCc1nc2[nH]cnc2c2nc(-c3cc(OC)c(OC)c(OC)c3)nn12	3.85
CCCCc1nc2nc[nH]c2c2nc(-c3ccc(Cl)cc3)nn12	4.78
CCCCc1nc2nc[nH]c2c2nc(-c3ccc(-c4ccccc4)cc3)nn12	5.9
CCCCc1nc2[nH]cnc2c2nc(-c3ccc(C)cc3)nn12	4.71
CCCCc1nc2nc[nH]c2c2nc(-c3ccccc3Cl)nn12	4.78
CCCCCCc1nc2nc[nH]c2c2nc(-c3ccccc3)nn12	5.06
CCCCc1nc2nc[nH]c2c2nc(-c3ccc(F)cc3)nn12	4.38
CCCCc1nc2[nH]cnc2c2nc(-c3cccc(C)c3)nn12	4.71
CCCCc1nc2nc[nH]c2c2nc(-c3ccc(Br)cc3)nn12	5.05
CCCCc1nc2[nH]cnc2c2nc(Cc3ccccc3)nn12	4.33
CCc1nc2[nH]cnc2c2nc(-c3ccccc3)nn12	3.39
CCCCc1nc2[nH]cnc2c2nc(-c3ccccc3)nn12	4.23
CCCCc1nc2[nH]cnc2c2nc(-c3ccco3)nn12	2.84
CCCCc1nc2[nH]cnc2c2nc(C)nn12	2.57
CCCCc1nc2[nH]cnc2c2nc(-c3ccc(OC)cc3)nn12	4.1
